- run.description: GPCRScan assay: inhibition of GABA/PBR
- Parameters: species or system Rattus norvegicus; radioligand conc. used [nm] 0.3 – 2.0, parental cells brain tissue
observed.property: pKi
In plain terms, pKi is the concentration in mol/L turned into minus its base-10 logarithm.

## Input Looking for the measured pKi of CCOc1cc(N2C3COCC2CN(C(=O)[C@H]2C[C@H](O)CN2c2ccc(Cl)cc2)C3)ccc1Cl , can you help?
## Output 5.74

----------
- target.entity: Sigma intracellular receptor 2 (Homo sapiens, UniProt Q5BJF2)
- Sequence (Q5BJF2 whole entry): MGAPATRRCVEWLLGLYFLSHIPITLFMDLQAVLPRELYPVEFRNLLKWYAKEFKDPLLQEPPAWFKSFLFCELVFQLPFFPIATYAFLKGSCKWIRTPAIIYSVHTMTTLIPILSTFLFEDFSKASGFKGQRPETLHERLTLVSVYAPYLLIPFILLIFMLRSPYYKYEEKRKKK
- run.description: GPCRScan assay: inhibition of Sigma 2
- Parameters: radioligand conc. used [nm] 5.0, parental cells HEKT
observed.property: pKi
In plain terms, pKi is the concentration in mol/L turned into minus its base-10 logarithm.

molecule	pKi
CCOc1cc(N2C3COCC2CN(C(=O)[C@H]2C[C@H](O)CN2c2ccc(Cl)cc2)C3)ccc1Cl [BAY-3153]	5.83

For the next question, use this molecule.
## Input Looking for the measured pKi of O=C([C@H]1C[C@H](O)CN1c1ccc(Cl)cc1)N1CC2COCC(C1)N2Cc1ccc(Cl)cc1 [BAY-173] , can you help?
## Output 5.66
